# Substrate: O=[N+]([O-])c1ccc(OP(=O)(O)O)cc1
# test.name: chromogenic phosphatase assay, A400
# Format: biochemical, Thermosynechococcus vestitus
# particulars: 50 mM Tris-HCl pH 8.3, 50 mM NaCl, 1 mM DTT, 2 mM MnCl2, 30 °C, pNPP 0.1-10 mM
metric: Km (mM)
Please reply with the bare figure in mM and do not write the unit itself.

Recorded results for 2 proteins are shown here.
protein	units	Km
tPphA (Thermosynechococcus vestitus BP-1; R13K) (protein) MDVAGLTDCGLIKKSNQDAFYIDEKHQRFFIVADGMGGHAGGEEASRLAVDHIRQYLETHLEDLQHDPVTLLRQAFLAANHAIVEQQRQNSARADMGTTAVVILLDEKGDRAWCAHVGDSRIYRWRKDQLQQITSDHTWIAQAVQLGSLTIEQARQHPWRHVLSQCLGREDLSQIDIQPIDLEPGDRLLLCSDGLTEELTDDVISIYLSEPNVQKAAAALVDAAKTHGGRDNVTVVVISV	mM	1.39
tPphA (Thermosynechococcus vestitus BP-1; R13C) (protein) MDVAGLTDCGLICKSNQDAFYIDEKHQRFFIVADGMGGHAGGEEASRLAVDHIRQYLETHLEDLQHDPVTLLRQAFLAANHAIVEQQRQNSARADMGTTAVVILLDEKGDRAWCAHVGDSRIYRWRKDQLQQITSDHTWIAQAVQLGSLTIEQARQHPWRHVLSQCLGREDLSQIDIQPIDLEPGDRLLLCSDGLTEELTDDVISIYLSEPNVQKAAAALVDAAKTHGGRDNVTVVVISV	mM	4.27

Problem: Would you kindly share the measured Km for tPphA (Thermosynechococcus vestitus BP-1; R13G) (protein) MDVAGLTDCGLIGKSNQDAFYIDEKHQRFFIVADGMGGHAGGEEASRLAVDHIRQYLETHLEDLQHDPVTLLRQAFLAANHAIVEQQRQNSARADMGTTAVVILLDEKGDRAWCAHVGDSRIYRWRKDQLQQITSDHTWIAQAVQLGSLTIEQARQHPWRHVLSQCLGREDLSQIDIQPIDLEPGDRLLLCSDGLTEELTDDVISIYLSEPNVQKAAAALVDAAKTHGGRDNVTVVVISV ?
Result: 3.58
